Reference source: ChEMBL document CHEMBL1157594

Molecular target: D(2) dopamine receptor (Homo sapiens, UniProt P14416)
Sequence (P14416 whole entry): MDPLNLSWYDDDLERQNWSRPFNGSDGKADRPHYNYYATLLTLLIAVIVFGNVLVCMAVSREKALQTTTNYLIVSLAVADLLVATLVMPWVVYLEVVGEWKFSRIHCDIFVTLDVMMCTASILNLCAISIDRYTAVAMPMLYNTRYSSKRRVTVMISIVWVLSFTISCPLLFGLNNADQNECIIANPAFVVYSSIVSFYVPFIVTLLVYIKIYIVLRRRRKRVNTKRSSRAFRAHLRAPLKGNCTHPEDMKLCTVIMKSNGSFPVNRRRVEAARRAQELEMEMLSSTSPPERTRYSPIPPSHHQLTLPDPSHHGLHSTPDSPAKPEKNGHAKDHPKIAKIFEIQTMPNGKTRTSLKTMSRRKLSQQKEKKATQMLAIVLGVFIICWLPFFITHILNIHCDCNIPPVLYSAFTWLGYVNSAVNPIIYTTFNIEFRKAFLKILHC
Experiment: biochemical
Format: cell-based, HEK293
pKi: −log10 of the molar value.
Recorded measurements of pKi, one per entry
READOUT_NAME: pKi

[[record]]
molecule = "CCCN1CCC[C@@H](c2cccc(S(C)(=O)=O)c2)C1"
readout_name = "pKi"
measured_value = 6.12

[[record]]
molecule = "CCCN1CCC(c2cccc(O)c2)CC1"
readout_name = "pKi"
measured_value = 6.46

[[record]]
molecule = "CCCN1CCC(c2cccc(S(C)(=O)=O)c2)CC1 [PRIDOPIDINE]"
readout_name = "pKi"
measured_value = 5.12

[[record]]
molecule = "CS(=O)(=O)c1cccc(C2CCN(Cc3ccccc3)CC2)c1"
readout_name = "pKi"
measured_value = 6.41

[[record]]
molecule = "CS(=O)(=O)c1cccc(N2CCN(Cc3ccccc3)CC2)c1"
readout_name = "pKi"
measured_value = 6.37

[[record]]
molecule = "Oc1cccc(C2CCN(Cc3ccccc3)CC2)c1"
readout_name = "pKi"
measured_value = 7.46

[[record]]
molecule = "CCCN1CCN(c2cccc(S(C)(=O)=O)c2)CC1"
readout_name = "pKi"
measured_value = 6.18

[[record]]
molecule = "CCCN1CCN(c2cccc(O)c2)CC1"
readout_name = "pKi"
measured_value = 7.16


----------
System: Rattus norvegicus
Assay: Reduction in spontaneous locomotor activity in Sprague-Dawley rat striatum at 33 umol/kg, sc relative to control
Format: functional
Parameters: scale not given: the % may be the effect or the level left
READOUT_NAME: Activity

[[record]]
chemical_structure = "CCCN1CCN(c2cccc(O)c2)CC1"
measured_value = "31%"

[[record]]
chemical_structure = "CCCN1CCN(c2cccc(S(C)(=O)=O)c2)CC1"
measured_value = "27%"

[[record]]
chemical_structure = "Oc1cccc(C2CCN(Cc3ccccc3)CC2)c1"
measured_value = "85%"

[[record]]
chemical_structure = "CS(=O)(=O)c1cccc(C2CCN(Cc3ccccc3)CC2)c1"
measured_value = "44%"


----------
Target: UniProtKB P14416
Experiment: biochemical
Assay type: cell-based, HEK293
pKi: −log10 of the molar value.
pKi of 6 or higher: yes. Under 6: no.

[[record]]
chemical_structure = "CCCN1CCC(c2cccc(S(C)(=O)=O)c2)CC1"
group_label = "no"

[[record]]
chemical_structure = "CS(=O)(=O)c1cccc(N2CCN(Cc3ccccc3)CC2)c1"
group_label = "no"

[[record]]
chemical_structure = "Oc1cccc(C2CCN(Cc3ccccc3)CC2)c1"
group_label = "yes"

[[record]]
chemical_structure = "CCCN1CCC(c2cccc(O)c2)CC1"
group_label = "no"

[[record]]
chemical_structure = "CCCN1CCC[C@@H](c2cccc(S(C)(=O)=O)c2)C1"
group_label = "no"


----------
Biological target: D(2) dopamine receptor (Homo sapiens)
Assay: biochemical
Format: cell-based, HEK293
READOUT_NAME: Ki (nM)

[[record]]
chemical_structure = "CCCN1CCN(c2cccc(S(C)(=O)=O)c2)CC1"
unit = "nM"
measured_value = 1210

[[record]]
chemical_structure = "CCCN1CCN(c2cccc(O)c2)CC1"
unit = "nM"
measured_value = 721

[[record]]
chemical_structure = "CS(=O)(=O)c1cccc(C2CCN(Cc3ccccc3)CC2)c1"
unit = "nM"
measured_value = 841

